test.system: MelBSt (melibiose permease of Salmonella enterica serovar Typhimurium) (Salmonella enterica, UniProt P30878, D55C)
Construct: gene melB
Sequence (P30878 whole entry D55C): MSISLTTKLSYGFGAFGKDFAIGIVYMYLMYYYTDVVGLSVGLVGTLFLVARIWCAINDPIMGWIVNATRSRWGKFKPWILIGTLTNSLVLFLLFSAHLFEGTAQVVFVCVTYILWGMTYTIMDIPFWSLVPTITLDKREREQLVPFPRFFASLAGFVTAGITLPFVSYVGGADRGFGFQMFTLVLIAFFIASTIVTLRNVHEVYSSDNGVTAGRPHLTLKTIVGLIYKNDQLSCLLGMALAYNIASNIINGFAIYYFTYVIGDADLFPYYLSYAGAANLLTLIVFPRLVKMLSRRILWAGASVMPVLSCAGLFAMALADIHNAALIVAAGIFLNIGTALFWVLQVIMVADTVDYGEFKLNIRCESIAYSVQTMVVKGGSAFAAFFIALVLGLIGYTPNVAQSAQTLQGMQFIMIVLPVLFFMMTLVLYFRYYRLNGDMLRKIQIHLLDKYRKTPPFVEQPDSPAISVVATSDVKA
test.protocol: biochemical
cond: read-out: Melibiose; pH 7.5, 25 °C, no Na+ or Li+, UDM
measured.parameter: pKd
Numbers only, as −log10 of the molar value.

Exam item: Record request: pKd value, item OC[C@H]1O[C@H](OC[C@H]2OC(O)[C@H](O)[C@@H](O)[C@@H]2O)[C@H](O)[C@@H](O)[C@H]1O (stereo partly shown)
Marked response: 2.24

* * *

test.system: MelBSt (melibiose permease of Salmonella enterica serovar Typhimurium) (Salmonella enterica, UniProt P30878, D55C)
Construct: gene melB
test.protocol: biochemical
measured.parameter: Kd (µM)
Give bare numbers, in µM.

Exam item: Quick one: Kd of O=[N+]([O-])c1ccc(O[C@H]2O[C@H](CO)[C@H](O)[C@H](O)[C@H]2O)cc1 [α-NPG, 4-nitrophenyl-α-D-galactopyranoside] ?
Marked response: 15.1
